# System: GALIUM APARINE
# testDescription: Preemergence herbicidal evaluation, GALAP (Galium)
# Format: in vivo
# Design: key: visual rating scale 0-9 vs control
# conditionSet: Rate 0.500 kg/ha, rated four to five weeks after treatment
observationType: GALAP
Number only, please.

1. C=CCn1c(=O)n(C)c(=O)n(-c2cc(N3C(=O)C4=C(CCCC4)C3=O)c(F)cc2Cl)c1=O | 4.0
2. CC(C)OC(=O)Cn1c(=O)n(C)c(=O)n(-c2cc(N3C(=O)C4C[S+]([O-])CCN4C3=O)c(F)cc2Cl)c1=O (centres unmarked) | 9.0

Given C#CCn1c(=O)n(C)c(=O)n(-c2cc(N3C(=O)C4=C(CCCC4)C3=O)c(F)cc2Cl)c1=O , respond with its GALAP.
4.0

Given C=CCn1c(=O)[nH]c(=O)n(-c2cc(N3C(=O)C4=C(CCCC4)C3=O)c(F)cc2Cl)c1=O , respond with its GALAP.
4.0

Given CC(C)OC(=O)Cn1c(=O)n(C)c(=O)n(-c2cc(N=c3sc(=O)n4n3CCCC4)c(F)cc2Cl)c1=O , respond with its GALAP.
9.0

----------
# Tested on: IPOMOEA SPP.
# testDescription: Preemergence herbicidal evaluation, IPOSS (Morningglory Spp.)
# Format: in vivo
# Set-up: key: visual rating scale 0-9 vs control
# conditionSet: Rate 0.250 kg/ha, rated four to five weeks after treatment
The following molecules are listed with their measured IPOSS values.
Number only, please.

1. C#CCn1c(=O)n(C)c(=O)n(-c2cc(N3C(=O)C4=C(CCCC4)C3=O)c(F)cc2Cl)c1=O | 0.0
2. C=CCn1c(=O)[nH]c(=O)n(-c2cc(N3C(=O)C4=C(CCCC4)C3=O)c(F)cc2Cl)c1=O | 0.0
3. CC(C)OC(=O)Cn1c(=O)n(C)c(=O)n(-c2cc(N=c3sc(=O)n4n3CCCC4)c(F)cc2Cl)c1=O | 5.0
4. C=CCn1c(=O)n(C)c(=O)n(-c2cc(N3C(=O)C4=C(CCCC4)C3=O)c(F)cc2Cl)c1=O | 0.0

Could you now consider this next molecule?
Given CC(C)OC(=O)Cn1c(=O)n(C)c(=O)n(-c2cc(N3C(=O)C4C[S+]([O-])CCN4C3=O)c(F)cc2Cl)c1=O (centres unmarked) , respond with its IPOSS.
1.0

----------
# System: GALIUM APARINE
# testDescription: Preemergence herbicidal evaluation, GALAP (Galium)
# Type: in vivo
# Set-up: key: visual rating scale 0-9 vs control
# conditionSet: Rate 0.250 kg/ha, rated four to five weeks after treatment
observationType: GALAP
Number only, please.

Given C=CCn1c(=O)n(C)c(=O)n(-c2cc(N3C(=O)C4=C(CCCC4)C3=O)c(F)cc2Cl)c1=O , respond with its GALAP.
7.0

Given CC(C)OC(=O)Cn1c(=O)n(C)c(=O)n(-c2cc(N=c3sc(=O)n4n3CCCC4)c(F)cc2Cl)c1=O , respond with its GALAP.
8.0

Given CC(C)OC(=O)Cn1c(=O)n(C)c(=O)n(-c2cc(N3C(=O)C4C[S+]([O-])CCN4C3=O)c(F)cc2Cl)c1=O (centres unmarked) , respond with its GALAP.
7.0

Given C#CCn1c(=O)n(C)c(=O)n(-c2cc(N3C(=O)C4=C(CCCC4)C3=O)c(F)cc2Cl)c1=O , respond with its GALAP.
0.0

Given C=CCn1c(=O)[nH]c(=O)n(-c2cc(N3C(=O)C4=C(CCCC4)C3=O)c(F)cc2Cl)c1=O , respond with its GALAP.
0.0

----------
# System: TRITICUM AESTIVUM, CV. APOLLO
# testDescription: Preemergence herbicidal evaluation, TRZAWO (Wheat, Winter, CV. APOLLO)
# Format: in vivo
# conditionSet: 0.125 kg/ha, rated four to five weeks after treatment
# Source text: Results of herbicide evaluation are expressed on a rating scale (0-9). The scale is based upon a visual observation of plant stand, vigor, malformation, size, chlorosis and overall plant appearance as compared with a control. […]
observationType: Herbicide rating (0-9) TRZAWO

1. Cn1c(=O)n(CC(=O)O)c(=O)n(-c2cc(N3C(=O)C4=C(CCCC4)C3=O)c(F)cc2Cl)c1=O [Compound 3] | 0.0
2. COC(=O)Cn1c(=O)n(C)c(=O)n(-c2cc(N3C(=O)C4=C(CCCC4)C3=O)c(Cl)cc2Cl)c1=O [Compound 6] | 2.0
3. CCOC(=O)Cn1c(=O)n(CC(=O)OC(C)(C)C)c(=O)n(-c2ccc(F)c(N3C(=O)C4=C(CCCC4)C3=O)c2)c1=O [Compound 8] | 0.0

Send back TRITICUM AESTIVUM, CV. APOLLO Herbicide rating (0-9) TRZAWO of COC(=O)Cn1c(=O)n(C)c(=O)n(-c2cc(N3C(=O)C4=C(CCCC4)C3=O)ccc2F)c1=O [Compound 5] only.
0.0

----------
# Tested on: ZEA MAYS L.
# testDescription: Preemergence herbicidal evaluation, ZEAMX (Corn, Field)
# Type: in vivo
# Design: key: visual rating scale 0-9 vs control
# conditionSet: Rate 0.250 kg/ha, rated four to five weeks after treatment
The following compounds are listed with their measured ZEAMX values.

Would you please look over these solved cases?
1. C=CCn1c(=O)n(C)c(=O)n(-c2cc(N3C(=O)C4=C(CCCC4)C3=O)c(F)cc2Cl)c1=O [Compound 17] | 0.0
2. CC(C)OC(=O)Cn1c(=O)n(C)c(=O)n(-c2cc(N3C(=O)C4C[S+]([O-])CCN4C3=O)c(F)cc2Cl)c1=O (centres unmarked) [Compound 14] | 0.0
3. C#CCn1c(=O)n(C)c(=O)n(-c2cc(N3C(=O)C4=C(CCCC4)C3=O)c(F)cc2Cl)c1=O [Compound 16] | 1.0
4. CC(C)OC(=O)Cn1c(=O)n(C)c(=O)n(-c2cc(N=c3sc(=O)n4n3CCCC4)c(F)cc2Cl)c1=O [Compound 13] | 0.0

Could you now consider this next compound?
Given C=CCn1c(=O)[nH]c(=O)n(-c2cc(N3C(=O)C4=C(CCCC4)C3=O)c(F)cc2Cl)c1=O [Compound 18] , respond with its ZEAMX.
0.0

----------
# System: IPOMOEA SPP.
# testDescription: Preemergence herbicidal evaluation, IPOSS (Morningglory Spp.)
# Assay type: in vivo
# conditionSet: 0.500 kg/ha, rated four to five weeks after treatment
The following molecules are listed with their measured Herbicide rating (0-9) IPOSS values.
Number only, please.

1. Cn1c(=O)n(CC(=O)O)c(=O)n(-c2cc(N3C(=O)C4=C(CCCC4)C3=O)c(F)cc2Cl)c1=O | 0.0
2. COC(=O)Cn1c(=O)n(C)c(=O)n(-c2cc(N3C(=O)C4=C(CCCC4)C3=O)c(Cl)cc2Cl)c1=O | 4.0
3. CCOC(=O)Cn1c(=O)[nH]c(=O)n(-c2ccc(F)c(N3C(=O)C4=C(CCCC4)C3=O)c2)c1=O | 0.0
4. Cn1c(=O)n(CC(=O)OC(C)(C)C)c(=O)n(-c2cc(N3C(=O)C4=C(CCCC4)C3=O)c(Cl)cc2Cl)c1=O | 0.0
5. CC(C)OC(=O)Cn1c(=O)n(C)c(=O)n(-c2cc(N3C(=O)c4cccc(F)c4C3=O)c(F)cc2Cl)c1=O | 0.0

Send back IPOMOEA SPP. Herbicide rating (0-9) IPOSS of CCOC(=O)Cn1c(=O)n(CC(=O)OC(C)(C)C)c(=O)n(-c2ccc(F)c(N3C(=O)C4=C(CCCC4)C3=O)c2)c1=O only.
0.0

Send back IPOMOEA SPP. Herbicide rating (0-9) IPOSS of COC(=O)Cn1c(=O)n(C)c(=O)n(-c2cc(N3C(=O)C4=C(CCCC4)C3=O)ccc2F)c1=O only.
0.0

Send back IPOMOEA SPP. Herbicide rating (0-9) IPOSS of Cn1c(=O)n(CC(=O)OC(C)(C)C)c(=O)n(-c2cc(N3C(=O)C4=C(CCCC4)C3=O)c(F)cc2Cl)c1=O only.
6.0

Send back IPOMOEA SPP. Herbicide rating (0-9) IPOSS of COC(=O)Cn1c(=O)n(C)c(=O)n(-c2cc(N3C(=O)C4=C(CCCC4)C3=O)c(F)cc2F)c1=O only.
0.0

----------
# Tested on: ZEA MAYS L.
# testDescription: Preemergence herbicidal evaluation, ZEAMX (Corn, Field)
# Type: in vivo
# Set-up: key: visual rating scale 0-9 vs control
# conditionSet: Rate 0.125 kg/ha, rated four to five weeks after treatment
The following molecules are listed with their measured ZEAMX values.

Given C#CCn1c(=O)n(C)c(=O)n(-c2cc(N3C(=O)C4=C(CCCC4)C3=O)c(F)cc2Cl)c1=O [Compound 16] , respond with its ZEAMX.
0.0

----------
# Test system: SETARIA VIRIDIS, (L) BEAU
# testDescription: Postemergence herbicidal evaluation, SETVI (Foxtail, Green)
# Type: in vivo
# conditionSet: 0.250 kg/ha, rated four to five weeks after treatment
# Experimental: In the tests, seedling plants are grown in jiffy flats for about two weeks. The test compounds are dispersed in 50/50 acetone/water mixtures containing 0.5% TWEEN®20, a polyoxyethylene sorbitan monolaurate surfactant of Atlas Chemical Industries, in sufficient quantities to provide the equivalent of about 0.125 kg to 0.500 kg per hectare of active compound when applied to the plants through a spray nozzle operating at 40 psi for a predetermined time. […]
The following compounds are listed with their measured Herbicide rating (0-9) SETVI values.
Number only, please.

1. CC(C)OC(=O)Cn1c(=O)n(C)c(=O)n(-c2cc(N3C(=O)C4C[S+]([O-])CCN4C3=O)c(F)cc2Cl)c1=O (stereo not drawn) | 1.0

Given C#CCn1c(=O)n(C)c(=O)n(-c2cc(N3C(=O)C4=C(CCCC4)C3=O)c(F)cc2Cl)c1=O , respond with its Herbicide rating (0-9) SETVI.
0.0

Given CCOC(=O)Cn1c(=O)[nH]c(=O)n(-c2ccc(F)c(N3C(=O)C4=C(CCCC4)C3=O)c2)c1=O , respond with its Herbicide rating (0-9) SETVI.
0.0

Given CC(C)OC(=O)Cn1c(=O)n(C)c(=O)n(-c2cc(N=c3sc(=O)n4n3CCCC4)c(F)cc2Cl)c1=O , respond with its Herbicide rating (0-9) SETVI.
1.0

Given CCOC(=O)Cn1c(=O)n(CC(=O)OC(C)(C)C)c(=O)n(-c2ccc(F)c(N3C(=O)C4=C(CCCC4)C3=O)c2)c1=O , respond with its Herbicide rating (0-9) SETVI.
0.0

Given Cn1c(=O)n(CC(=O)O)c(=O)n(-c2cc(N3C(=O)C4=C(CCCC4)C3=O)c(F)cc2Cl)c1=O , respond with its Herbicide rating (0-9) SETVI.
0.0

Given COC(=O)Cn1c(=O)n(C)c(=O)n(-c2cc(N3C(=O)C4=C(CCCC4)C3=O)c(F)cc2F)c1=O , respond with its Herbicide rating (0-9) SETVI.
0.0

Given C=CCn1c(=O)n(CC=C)c(=O)n(-c2cc(N3C(=O)C4=C(CCCC4)C3=O)c(F)cc2Cl)c1=O , respond with its Herbicide rating (0-9) SETVI.
0.0

Given C#CCn1c(=O)n(CC=C)c(=O)n(-c2cc(N3C(=O)C4=C(CCCC4)C3=O)c(F)cc2Cl)c1=O , respond with its Herbicide rating (0-9) SETVI.
0.0
